# experimental.target: T1, cynomolgus monkey serum albumin (cynomolgus monkey, UniProt A2V9Z4 25-608)
# T1 construct: Bought protein, immobilized on a CM5 chip by amine coupling; also called Cyno SA
# assay.procedure: SPR (Biacore 8K), albumin immobilized on CM5 chip, 25 C, 1:1 kinetic fit
recorded.endpoint: Kd (nM)

INSERT INTO assay_data (binder, recorded_endpoint, assay_result) VALUES
  ('RLN Analog 3 (other, Single-chain fusion: VHH - (G4Q)5 L1 - RLN2 B chain (desB1) - L2 - RLN2 A chain) EVQLLESGGGLVQPGGSLRLSCAASGRYIDETAVAWFRQAPGKEREFVAGIGGGVDITYYADSVKGRFTISRDNSKNTLYLQMNSLRPEDTAVYYCAARPGRPLITSKVADLYPYWGQGTLVTVSSGGGGQGGGGQGGGGQGGGGQGGGGQSWMEEVIKLCGRELVRAQIAICGMSTWSGGGSGGSGGGQLYSALANKCCHVGCTKRSLARFC', 'Kd', 0.36),
  ('RLN Analog 9 (other, Single-chain fusion: RLN2 B chain (desB1) - L2 - RLN2 A chain - (G4Q)5 L1 - VHH (C-terminal)) SWMEEVIKLCGRELVRAQIAICGMSTWSGGGSGGSGGGQLYSALANKCCHVGCTKRSLARFCGGGGQGGGGQGGGGQGGGGQGGGGQEVQLLESGGGLVQPGGSLRLSCAASGRYIDETAVAWFRQAPGKGREFVAGIGGGVDITYYADSVKGRFTISRDNSKNTLYLQMNSLRPEDTAVYYCAARPGRPLITSKVADLYPYWGQGTLVTVSSPP', 'Kd', 0.86),
  ('RLN Analog 11 (other, Single-chain fusion: VHH - (G4Q)5 L1 - RLN2 B chain (desB1) - L2 of thirteen residues - RLN2 A chain (desA1-4)) EVQLLESGGGLVQPGGSLRLSCAASGRYIDETAVAWFRQAPGKEREFVAGIGGGVDITYYADSVKGRFTISRDNSKNTLYLQMNSLRPEDTAVYYCAARPGRPLITSKVADLYPYWGQGTLVTVSSGGGGQGGGGQGGGGQGGGGQGGGGQSWMEEVIKLCGRELVRAQIAICGMSTWSGGGSGGSGGSGGGALANKCCHVGCTKRSLARFC', 'Kd', 0.48),
  ('RLN Analog 2 (other, Single-chain fusion: VHH - (PGPA)8 L1 - RLN2 A chain - L2 - RLN2 B chain (desB1)) EVQLLESGGGLVQPGGSLRLSCAASGRYIDETAVAWFRQAPGKEREFVAGIGGGVDITYYADSVKGRFTISRDNSKNTLYLQMNSLRPEDTAVYYCAARPGRPLITSKVADLYPYWGQGTLVTVSSPGPAPGPAPGPAPGPAPGPAPGPAPGPAPGPAQLYSALANKCCHVGCTKRSLARFCGGGSGGSGGGSWMEEVIKLCGRELVRAQIAICGMSTWS', 'Kd', 0.45),
  ('RLN Analog 4 (other, Single-chain fusion: VHH - (PGPQ)8 L1 - RLN2 B chain (desB1) - L2 - RLN2 A chain) EVQLLESGGGLVQPGGSLRLSCAASGRYIDETAVAWFRQAPGKEREFVAGIGGGVDITYYADSVKGRFTISRDNSKNTLYLQMNSLRPEDTAVYYCAARPGRPLITSKVADLYPYWGQGTLVTVSSPGPQPGPQPGPQPGPQPGPQPGPQPGPQPGPQSWMEEVIKLCGRELVRAQIAICGMSTWSGGGSGGSGGGQLYSALANKCCHVGCTKRSLARFC', 'Kd', 0.42);
